assay: Inhibition of HCV NS5B polymerase by RdRp-catalyzed elongation assay; design: species or system Hepacivirus hominis
pIC50: −log10 of the molar value.
pIC50 by entry:

| Compound | Censor symbol | pIC50 |
| --- | --- | --- |
| CCc1ccc(/C=C2\SC(N[C@H](CC(=O)O)c3cccnc3)=NC2=O)o1 (stereo in doubt) | < | 4.00 |
| CCc1ccc(/C=C2\SC(NC(C(=O)O)c3ccc(Br)cc3)=NC2=O)o1 (stereo not drawn) | = | 5.22 |
| CCc1ccc(/C=C2\SC(NC(C(=O)O)c3ccc4ccccc4c3)=NC2=O)o1 (stereo not drawn) | = | 4.85 |
| CCc1ccc(/C=C2\SC(N[C@H](CC(=O)O)c3ccc(Cl)cc3Cl)=NC2=O)o1 (stereo in doubt) | = | 5.07 |
| CCc1ccc(/C=C2\SC(NC(C(=O)O)c3ccc(C(F)(F)F)cc3)=NC2=O)o1 (stereo not drawn) | = | 4.68 |
| CCc1ccc(/C=C2\SC(NC(Cc3ccccc3)C(=O)O)=NC2=O)o1 (stereo not drawn) | = | 4.17 |
| CCc1ccc(/C=C2\SC(N[C@H](CC(=O)O)c3ccccc3)=NC2=O)o1 (stereo in doubt) | = | 4.23 |
| CCc1ccc(/C=C2\SC(N[C@H](C(=O)O)c3ccccc3)=NC2=O)o1 (stereo in doubt) | = | 4.26 |
| CCc1ccc(/C=C2\SC(NC(c3ccccc3)c3nn[nH]n3)=NC2=O)o1 (stereo not drawn) | = | 4.72 |
| CCc1ccc(/C=C2\SC(N[C@H](C(=O)O)c3ccc(O)cc3)=NC2=O)o1 (stereo in doubt) | = | 4.37 |
| CCc1ccc(/C=C2\SC(N[C@H](CC(=O)O)c3ccc(F)cc3)=NC2=O)o1 (stereo in doubt) | = | 4.36 |
| CCc1ccc(/C=C2\SC(NC(C(=O)O)c3ccc(C)cc3)=NC2=O)o1 (stereo not drawn) | = | 4.96 |
| CCc1ccc(/C=C2\SC(NC(C(=O)O)C3(C)CCCC3)=NC2=O)o1 (stereo not drawn) | < | 4.00 |
| CCc1ccc(/C=C2\SC(NC(C(=O)O)c3ccc(F)c(Cl)c3)=NC2=O)o1 (stereo not drawn) | = | 4.62 |
| CCc1ccc(/C=C2\SC(NC(c3ccc(C)cc3)c3nn[nH]n3)=NC2=O)o1 (stereo not drawn) | = | 4.85 |
| CCc1ccc(/C=C2\SC(N[C@H](CC(=O)O)c3ccc(C)cc3)=NC2=O)o1 (stereo in doubt) | = | 4.57 |
| CCc1ccc(/C=C2\SC(NC(C(=O)O)c3ccc(C)cc3C)=NC2=O)o1 (stereo not drawn) | = | 4.92 |
| CCc1ccc(/C=C2\SC(N[C@H](C(=O)O)C3CCCCC3)=NC2=O)o1 (stereo in doubt) | = | 4.60 |
| CCc1ccc(/C=C2\SC(N[C@H](Cc3nn[nH]n3)c3ccccc3)=NC2=O)o1 (stereo in doubt) | = | 4.62 |
| CCc1ccc(/C=C2\SC(N[C@H](C(N)=O)c3ccc(F)cc3)=NC2=O)o1 (stereo in doubt) | = | 4.80 |
| CCc1ccc(/C=C2\SC(N[C@@H](C(=O)O)c3ccc(F)cc3)=NC2=O)o1 (stereo in doubt) | = | 4.30 |
| CCc1ccc(/C=C2\SC(N[C@H](C(=O)O)c3ccc(F)cc3)=NC2=O)o1 (stereo in doubt) | = | 5.52 |
| CCc1ccc(/C=C2\SC(N[C@H](CC(=O)O)c3ccc(C#N)cc3)=NC2=O)o1 (stereo in doubt) | < | 4.00 |
| CCc1ccc(/C=C2\SC(N[C@H](CC(=O)O)c3ccc(Br)cc3)=NC2=O)o1 (stereo in doubt) | = | 4.78 |
| CCc1ccc(/C=C2\SC(N[C@@H](CC(=O)O)c3ccc(F)cc3)=NC2=O)o1 (stereo in doubt) | = | 4.89 |
| CCc1ccc(/C=C2\SC(NC(C(=O)NO)c3ccc(Cl)cc3Cl)=NC2=O)o1 (stereo not drawn) | = | 5.26 |
| CCc1ccc(/C=C2\SC(NC(C(=O)O)c3ccc(Cl)cc3Cl)=NC2=O)o1 (stereo not drawn) | = | 5.12 |
| CCc1ccc(/C=C2\SC(N[C@@H](CC(=O)O)c3ccc(Cl)cc3Cl)=NC2=O)o1 (stereo in doubt) | = | 5.05 |

Source listed as ChEMBL document CHEMBL1146262.
